Consider the following compounds and their measured Ki readings.
# system_under_test: Carbonic anhydrase 4 (Homo sapiens, UniProt P22748)
# Sequence (P22748 whole entry): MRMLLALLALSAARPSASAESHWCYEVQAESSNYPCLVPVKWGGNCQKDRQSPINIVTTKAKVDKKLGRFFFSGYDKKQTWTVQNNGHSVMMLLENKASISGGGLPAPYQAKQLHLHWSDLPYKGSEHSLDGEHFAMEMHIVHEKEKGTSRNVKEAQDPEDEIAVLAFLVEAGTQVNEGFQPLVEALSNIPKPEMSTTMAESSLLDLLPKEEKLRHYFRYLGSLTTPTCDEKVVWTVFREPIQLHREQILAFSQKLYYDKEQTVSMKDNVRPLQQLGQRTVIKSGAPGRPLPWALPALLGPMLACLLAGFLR
reported_property: Ki (nM)

molecule_smiles=NS(=O)(=O)c1ccc(CCOC(=O)CN(CCN(CCN(CC(=O)O)CC(=O)O)CC(=O)O)CC(=O)O)cc1 system_under_test="Carbonic anhydrase 4 (Homo sapiens, UniProt P22748)" reported_property=Ki unit_of_measurement=nM assay_value=190
molecule_smiles=NS(=O)(=O)c1cc(S(N)(=O)=O)c(NC(=O)CN(CCN(CCN(CC(=O)O)CC(=O)O)CC(=O)O)CC(=O)O)cc1Cl system_under_test="Carbonic anhydrase 4 (Homo sapiens, UniProt P22748)" reported_property=Ki unit_of_measurement=nM assay_value=52
molecule_smiles=NS(=O)(=O)c1ccc(CCNC(=O)CN(CCN(CCN(CC(=O)O)CC(=O)NCCc2ccc(S(N)(=O)=O)cc2)CC(=O)O)CC(=O)O)cc1 system_under_test="Carbonic anhydrase 4 (Homo sapiens, UniProt P22748)" reported_property=Ki unit_of_measurement=nM assay_value=16
molecule_smiles=NS(=O)(=O)c1ccc(CCNC(=O)CN(CCN(CCN(CC(=O)O)CC(=O)O)CC(=O)O)CC(=O)O)cc1 system_under_test="Carbonic anhydrase 4 (Homo sapiens, UniProt P22748)" reported_property=Ki unit_of_measurement=nM assay_value=36
molecule_smiles=NS(=O)(=O)c1ccc(NNC(=O)CN(CCN(CCN(CC(=O)O)CC(=O)NNc2ccc(S(N)(=O)=O)cc2)CC(=O)O)CC(=O)O)cc1 system_under_test="Carbonic anhydrase 4 (Homo sapiens, UniProt P22748)" reported_property=Ki unit_of_measurement=nM assay_value=430
molecule_smiles=NS(=O)(=O)c1ccc(CCOC(=O)CN(CCN(CCN(CC(=O)O)CC(=O)OCCc2ccc(S(N)(=O)=O)cc2)CC(=O)O)CC(=O)O)cc1 system_under_test="Carbonic anhydrase 4 (Homo sapiens, UniProt P22748)" reported_property=Ki unit_of_measurement=nM assay_value=115
molecule_smiles=NS(=O)(=O)c1ccc(NC(=O)CN(CCN(CCN(CC(=O)O)CC(=O)O)CC(=O)O)CC(=O)O)c(Br)c1 system_under_test="Carbonic anhydrase 4 (Homo sapiens, UniProt P22748)" reported_property=Ki unit_of_measurement=nM assay_value=27
molecule_smiles=Nc1ccc2nc(S(N)(=O)=O)sc2c1 system_under_test="Carbonic anhydrase 4 (Homo sapiens, UniProt P22748)" reported_property=Ki unit_of_measurement=nM assay_value=19
molecule_smiles=NS(=O)(=O)c1nc2ccc(OCCOC(=O)CN(CCN(CCN(CC(=O)O)CC(=O)O)CC(=O)O)CC(=O)O)cc2s1 system_under_test="Carbonic anhydrase 4 (Homo sapiens, UniProt P22748)" reported_property=Ki unit_of_measurement=nM assay_value=5

Data provenance is ChEMBL document CHEMBL1134204.
